// data source = the array DNA melting data of Ke et al.

# test_method_notes: melting temperature; melt of duplexes
# measurement_parameters: sodium 0.0675 M; strand 1 µM
Answer each item with its documented Tm.
Give bare numbers, in °C.

Qu. Give the reported Tm for this substance. CGACGTGCCCTATGTGCTG+CAGCACATATCGCACGTCG ((((((((..(((((((((+)))))))))..))))))))
Ans. 48.1

Qu. Give the reported Tm for this substance. CGACGTGCGTTATGTGCTG+CAGCACATCAGGCACGTCG ((((((((.(.((((((((+)))))))).).))))))))
Ans. 49.9

Give Tm for all substances that follow.
1. CGACGTGCACTATGTGCTG+CAGCACATCCTGCACGTCG (((((((((..((((((((+))))))))..)))))))))
2. CGACGTGCGGTATGTGCTG+CAGCACATTCAGCACGTCG ((((((((.(.((((((((+)))))))).).))))))))
3. CGACGTGCGAGATGTGCTG+CAGCACATAGGGCACGTCG ((((((((...((((((((+))))))))...))))))))
4. CGACGTGCATAATGTGCTG+CAGCACATGTGGCACGTCG ((((((((...((((((((+))))))))...))))))))

Ans.
[44.9, 54.2, 50.7, 51]

Qu. Give the reported Tm for this substance. CGACGTGCGACATGTGCTG+CAGCACATTAAGCACGTCG ((((((((...((((((((+))))))))...))))))))
Ans. 53.3

###

# test_method_notes: melting temperature; melt of duplexes
# measurement_parameters: sodium 0.0675 M; strand 1 µM
Answer each item with its documented Tm.
Please don't drop the unit; write it after the number.

Recorded results for 5 substances are shown here.
Qu. Give the reported Tm for this substance. CGACGTGCGACATGTGCTG+CAGCACATACAGCACGTCG ((((((((...((((((((+))))))))...))))))))
Ans. 53.1 °C

Qu. Give the reported Tm for this substance. CGACGTGCGGGATGTGCTG+CAGCACATGGCGCACGTCG (((((((((..((((((((+))))))))..)))))))))
Ans. 57.5 °C

Qu. Give the reported Tm for this substance. CGACGTGCATGATGTGCTG+CAGCACATCTGGCACGTCG ((((((((..(((((((((+)))))))))..))))))))
Ans. 56.1 °C

Qu. Give the reported Tm for this substance. CGACGTGCTGTATGTGCTG+CAGCACATACCGCACGTCG ((((((((.((((((((((+)))))))))).))))))))
Ans. 55.2 °C

Qu. Give the reported Tm for this substance. CGACGTGCTGAATGTGCTG+CAGCACATGGCGCACGTCG ((((((((...((((((((+))))))))...))))))))
Ans. 52.3 °C

Give Tm for all substances that follow.
1. CGACGTGCTGAATGTGCTG+CAGCACATGGTGCACGTCG ((((((((...((((((((+))))))))...))))))))
2. CGACGTGCCGGATGTGCTG+CAGCACATATCGCACGTCG ((((((((...((((((((+))))))))...))))))))

Ans.
1. 50.9 °C
2. 49.7 °C
